Assay: Pharmacokinetics of released PEGylated protease inhibitor following P.O. administration of prodrugs in rats
Type: in vivo, male Sprague-Dawley rats
Conditions: mPEG6-atazanavir in plasma after PO administration of mPEG6-ATV or of the listed prodrug, rats (n = 4-5)
Method: Pharmacokinetic analysis of protease inhibitors described herein was conducted. To evaluate the pharmacokinetics of PEGylated protease inhibitor conjugates with releasable lipophilic attachments, test compounds were administered to male Sprague-Dawley rats. At various times following test article administration, serial blood samples were collected from indwelling jugular vein catheters and transferred to micro-tubes containing 7.5 μL of 20% w/v K2EDTA as an anticoagulant. […]
Some compounds, each annotated with its measured Cmax Mean.

compound	Cmax Mean [ng/mL]
CCCCCCCC(=O)OC(CN(Cc1ccc(-c2ccccn2)cc1)NC(=O)C(NC(=O)OC)C(C)(C)C)C(Cc1ccccc1)NC(=O)C(NC(=O)OCCOCCOCCOCCOCCOCCOC)C(C)(C)C (stereo not shown) [C7H15CO-mPEG6-ATV, O-Octanoyl-mPEG6-Atazanavir]	11.1
COCCOCCOCCOCCOCCOCCOC(=O)NC(C(=O)NC(Cc1ccccc1)C(CN(Cc1ccc(-c2ccccn2)cc1)NC(=O)C(NC(=O)OC)C(C)(C)C)OC(=O)COCCOC(=O)C(N)Cc1ccccc1)C(C)(C)C.Cl (stereo not shown) [mPEG6-Atazanavir-CME-phenylalanine HCl]	12.5
COCCOCCOCCOCCOCCOCCOC(=O)NC(C(=O)NC(Cc1ccccc1)C(CN(Cc1ccc(-c2ccccn2)cc1)NC(=O)C(NC(=O)OC)C(C)(C)C)OCOC)C(C)(C)C (stereo not shown) [mPEG6-Atazanavir-methyl methyl ether, mPEG6-Atazanavir Methyl Methyl Ether]	11.3
COCCOCCOCCOCCOCCOCCOC(=O)NC(C(=O)NC(Cc1ccccc1)C(CN(Cc1ccc(-c2ccccn2)cc1)NC(=O)C(NC(=O)OC)C(C)(C)C)OC(=O)C(N)C(C)C)C(C)(C)C.Cl [mPEG6-ATV-L-valine, mPEG6-Atazanavir-L-Valine HCl]	4.05

* * *

Listed below: Tmax Median values for each entry.
experiment: Pharmacokinetics of released PEGylated protease inhibitor following P.O. administration of prodrugs in rats; type: in vivo, male Sprague-Dawley rats; settings: mPEG6-atazanavir in plasma after PO administration of mPEG6-ATV or of the listed prodrug, rats (n = 4-5)
experimentalEndpoint: Tmax Median (h)

compound	experimentalEndpoint	unitAbbrev	observedValue
COCCOCCOCCOCCOCCOCCOC(=O)NC(C(=O)NC(Cc1ccccc1)C(CN(Cc1ccc(-c2ccccn2)cc1)NC(=O)C(NC(=O)OC)C(C)(C)C)OC(=O)C(CC(C)C)NC(=O)C(N)CC(C)C)C(C)(C)C.Cl (stereo not drawn) [Leu-Leu-mPEG6-ATV, Leu-Leu-mPEG6-Atazanavir Hydrochloride]	Tmax Median	h	1.50
CCCC(=O)OC(CN(Cc1ccc(-c2ccccn2)cc1)NC(=O)C(NC(=O)OC)C(C)(C)C)C(Cc1ccccc1)NC(=O)C(NC(=O)OCCOCCOCCOCCOCCOCCOC)C(C)(C)C (centres unmarked) [C3H7CO-mPEG6-ATV, mPEG6-Atazanavir Butyrate]	Tmax Median	h	2.00

* * *

experiment: Pharmacokinetics of PEGylated protease inhibitor prodrugs in rats; format: in vivo, male Sprague-Dawley rats; settings: prodrug in plasma
experimentalEndpoint: MRTlast (h)

molecule	observedValue
COCCOCCOCCOC(=O)NC(C(=O)NC(Cc1ccccc1)C(CN(Cc1ccc(-c2ccccn2)cc1)NC(=O)C(NC(=O)OC)C(C)(C)C)OC(=O)CNC(=O)C(N)CC(C)C)C(C)(C)C.Cl (stereo not drawn) [Leu-Gly-mPEG3-Atazanavir, Leu-Gly-mPEG3-Atazanavir Hydrochloride]	0.597
COCCOCCOCCOCCOCCOCCOC(=O)NC(C(=O)NC(Cc1ccccc1)C(CN(Cc1ccc(-c2ccccn2)cc1)NC(=O)C(NC(=O)OC)C(C)(C)C)OCOC)C(C)(C)C (stereo not shown)	5.12
COCCOCCOCCOCCOCCOC(=O)NC(C(=O)NC(Cc1ccccc1)C(CN(Cc1ccc(-c2ccccn2)cc1)NC(=O)C(NC(=O)OC)C(C)(C)C)OCOC)C(C)(C)C (stereo not shown)	3.93
COCCOCCOCCOCCOCCOC(=O)N[C@H](C(=O)N[C@@H](Cc1ccccc1)[C@H](CN(Cc1ccc(-c2ccccn2)cc1)NC(=O)[C@@H](NC(=O)OC)C(C)(C)C)OC(=O)[C@H](Cc1ccccc1)NC(=O)[C@@H](N)CC(C)C)C(C)(C)C.Cl [Leu-Phe-mPEG5-Atazanavir HCl, Leu-Phe-mPEG5-Atazanavir Hydrochloride]	7.57

* * *

test: Pharmacokinetics of released PEGylated protease inhibitor following P.O. administration of prodrugs in rats; format: in vivo, male Sprague-Dawley rats; set-up: concentration or dose not given beside the values; conditions: mPEG5-atazanavir in plasma after PO administration of mPEG5-ATV or of the listed prodrug, rats (n = 4-5)
Would you mind sorting the entries by AUCall Mean according to these classes? LOW: < 40 ng·h/mL; MID: ≥ 40 ng·h/mL and < 100 ng·h/mL; HIGH: ≥ 100 ng·h/mL

compound	qualitativeLabel
COCCOCCOCCOCCOCCOC(=O)N[C@H](C(=O)N[C@@H](Cc1ccccc1)[C@@H](O)CN(Cc1ccc(-c2ccccn2)cc1)NC(=O)[C@@H](NC(=O)OC)C(C)(C)C)C(C)(C)C	HIGH
COCCOCCOCCOCCOCCOC(=O)NC(C(=O)NC(Cc1ccccc1)C(CN(Cc1ccc(-c2ccccn2)cc1)NC(=O)C(NC(=O)OC)C(C)(C)C)OC(=O)CNC(=O)C(N)Cc1ccccc1)C(C)(C)C.Cl (stereo not drawn) [Phe-Gly-mPEG5-Atazanavir HCl, Phe-Gly-mPEG5-Atazanavir Hydrochloride]	LOW
COCCOCCOCCOCCOCCOC(=O)NC(C(=O)NC(Cc1ccccc1)C(CN(Cc1ccc(-c2ccccn2)cc1)NC(=O)C(NC(=O)OC)C(C)(C)C)OCOCCOC)C(C)(C)C (stereo not shown)	LOW
CCOC(CC)OC(CN(Cc1ccc(-c2ccccn2)cc1)NC(=O)C(NC(=O)OC)C(C)(C)C)C(Cc1ccccc1)NC(=O)C(NC(=O)OCCOCCOCCOCCOCCOC)C(C)(C)C (mixture of isomers)	HIGH
COCCOCCOCCOCCOCCOC(=O)NC(C(=O)NC(Cc1ccccc1)C(CN(Cc1ccc(-c2ccccn2)cc1)NC(=O)C(NC(=O)OC)C(C)(C)C)OC(=O)CNC(=O)C(N)CC(C)C)C(C)(C)C.Cl (stereo not drawn) [Leu-Gly-mPEG5-Atazanavir HCl, Leu-Gly-mPEG5-Atazanavir Hydrochloride]	HIGH
CCOCO[C@@H](CN(Cc1ccc(-c2ccccn2)cc1)NC(=O)[C@@H](NC(=O)OC)C(C)(C)C)[C@H](Cc1ccccc1)NC(=O)[C@@H](NC(=O)OCCOCCOCCOCCOCCOC)C(C)(C)C	HIGH
COCCOCCOCCOCCOCCOC(=O)NC(C(=O)NC(Cc1ccccc1)C(CN(Cc1ccc(-c2ccccn2)cc1)NC(=O)C(NC(=O)OC)C(C)(C)C)OC(=O)COCCOC(=O)C(Cc1ccccc1)NC(=O)C(N)Cc1ccccc1)C(C)(C)C.Cl (stereo not drawn) [CME Phe-Phe-mPEG5-Atazanavir HCl, mPEG5-atazanavir-ethoxy-CME-Phe-Phe]	HIGH
COCCOCCOCCOCCOCCOC(=O)N[C@H](C(=O)N[C@@H](Cc1ccccc1)[C@H](CN(Cc1ccc(-c2ccccn2)cc1)NC(=O)[C@@H](NC(=O)OC)C(C)(C)C)OC(=O)[C@H](Cc1ccccc1)NC(=O)[C@@H](N)Cc1ccccc1)C(C)(C)C.Cl [Phe-Phe-mPEG5-Atazanavir HCl, Phe-Phe-mPEG5-atazanavir hydrochloride]	MID
CCCC(=O)OC(CN(Cc1ccc(-c2ccccn2)cc1)NC(=O)C(NC(=O)OC)C(C)(C)C)C(Cc1ccccc1)NC(=O)C(NC(=O)OCCOCCOCCOCCOCCOC)C(C)(C)C (stereo not shown) [C3H7CO-mPEG5-ATV, mPEG5-Atazanavir Butyrate]	LOW
COCCOCCOCCOCCOCCOC(=O)NC(C(=O)NC(Cc1ccccc1)C(CN(Cc1ccc(-c2ccccn2)cc1)NC(=O)C(NC(=O)OC)C(C)(C)C)OC(=O)COCCOC(=O)C(N)CC(C)C)C(C)(C)C.Cl (stereo not shown) [mPEG5-Atazanavir-CME-Leucine HCl, mPEG5-Atazanavir-CME-Leucine]	MID
CCOC(=O)O[C@@H](CN(Cc1ccc(-c2ccccn2)cc1)NC(=O)[C@@H](NC(=O)OC)C(C)(C)C)[C@H](Cc1ccccc1)NC(=O)[C@@H](NC(=O)OCCOCCOCCOCCOCCOC)C(C)(C)C.Cl [mPEG5-Atazanavir - Ethyl Carbonate HCl, mPEG5-Atazanavir Ethyl Carbonate]	MID
COCCOCCOCCOCCOCCOC(=O)N[C@H](C(=O)N[C@@H](Cc1ccccc1)[C@H](CN(Cc1ccc(-c2ccccn2)cc1)NC(=O)[C@@H](NC(=O)OC)C(C)(C)C)OP(=O)(O)O)C(C)(C)C [mPEG5-ATV-phosphate, mPEG5-atazanavir phosphate]	LOW
COCCOCCOCCOCCOCCOC(=O)N[C@H](C(=O)N[C@@H](Cc1ccccc1)[C@H](CN(Cc1ccc(-c2ccccn2)cc1)NC(=O)[C@@H](NC(=O)OC)C(C)(C)C)OC(=O)[C@H](Cc1ccccc1)NC(=O)[C@@H](N)CC(C)C)C(C)(C)C.Cl [Leu-Phe-mPEG5-Atazanavir HCl, Leu-Phe-mPEG5-Atazanavir Hydrochloride]	HIGH
CCCCCC(=O)O[C@@H](CN(Cc1ccc(-c2ccccn2)cc1)NC(=O)[C@@H](NC(=O)OC)C(C)(C)C)[C@H](Cc1ccccc1)NC(=O)[C@@H](NC(=O)OCCOCCOCCOCCOCCOC)C(C)(C)C [C5H11CO-mPE5-ATV, C5H11CO-mPEG5-atazanavir]	LOW
